Target: HCV NS5B RdRp genotype 1b (Hepatitis C virus genotype 1b, UniProt Q9WMX2)
Construct: The protein was expressed with an 18 amino acid C-terminal truncation to enhance the solubility
Sequence (Q9WMX2 2420-2992): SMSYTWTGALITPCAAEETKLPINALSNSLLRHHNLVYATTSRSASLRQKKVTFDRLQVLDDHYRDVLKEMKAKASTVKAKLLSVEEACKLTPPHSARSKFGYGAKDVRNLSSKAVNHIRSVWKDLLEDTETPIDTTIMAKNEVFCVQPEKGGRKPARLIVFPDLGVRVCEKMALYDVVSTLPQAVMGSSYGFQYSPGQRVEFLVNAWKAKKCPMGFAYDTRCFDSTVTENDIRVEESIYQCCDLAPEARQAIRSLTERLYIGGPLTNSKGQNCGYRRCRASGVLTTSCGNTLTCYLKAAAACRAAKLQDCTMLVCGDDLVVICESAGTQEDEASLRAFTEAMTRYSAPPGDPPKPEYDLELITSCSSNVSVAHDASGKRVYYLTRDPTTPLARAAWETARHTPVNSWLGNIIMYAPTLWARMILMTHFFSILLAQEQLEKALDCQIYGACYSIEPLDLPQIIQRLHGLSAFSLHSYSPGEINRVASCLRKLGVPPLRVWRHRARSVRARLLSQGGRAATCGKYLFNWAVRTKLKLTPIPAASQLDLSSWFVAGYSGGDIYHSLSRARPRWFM
Experiment: Modified HCV NS5B RdRp enzyme assay (preincubation protocol)
pIC50: −log10 of the molar value.

| Molecule | pIC50 |
| --- | --- |
| COc1ccc2c(c1)C1CC1(C(=O)N1CC(O)(C(C)C)C1)Cn1c-2c(C2CCCCC2)c2ccc(C(=O)NS(=O)(=O)N(C)C)cc21 (stereo not drawn) | 6.30 to 9.00 |
| COc1ccc2c(c1)C1CC1(C(=O)N1CC(O)(C(F)(F)F)C1)Cn1c-2c(C2CCCCC2)c2ccc(C(=O)NS(=O)(=O)N(C)C)cc21 (stereo not drawn) [drawing 23] | 6.30 to 9.00 |
| COc1ccc2c(c1)C1CC1(C(=O)N1CC(O)(C(F)(F)F)C1)Cn1c-2c(C2CCCCC2)c2ccc(C(=O)NS(=O)(=O)N(C)C)cc21 (stereo not drawn) [drawing 25] | 6.30 to 9.00 |

Origin of the recorded values: patent US7521442B2
